The measured values listed here are drawn from patent US11091451B2.

// values below are reported IC50
ASSAYED SYSTEM: UniProt P34896
Sequence (P34896 whole entry): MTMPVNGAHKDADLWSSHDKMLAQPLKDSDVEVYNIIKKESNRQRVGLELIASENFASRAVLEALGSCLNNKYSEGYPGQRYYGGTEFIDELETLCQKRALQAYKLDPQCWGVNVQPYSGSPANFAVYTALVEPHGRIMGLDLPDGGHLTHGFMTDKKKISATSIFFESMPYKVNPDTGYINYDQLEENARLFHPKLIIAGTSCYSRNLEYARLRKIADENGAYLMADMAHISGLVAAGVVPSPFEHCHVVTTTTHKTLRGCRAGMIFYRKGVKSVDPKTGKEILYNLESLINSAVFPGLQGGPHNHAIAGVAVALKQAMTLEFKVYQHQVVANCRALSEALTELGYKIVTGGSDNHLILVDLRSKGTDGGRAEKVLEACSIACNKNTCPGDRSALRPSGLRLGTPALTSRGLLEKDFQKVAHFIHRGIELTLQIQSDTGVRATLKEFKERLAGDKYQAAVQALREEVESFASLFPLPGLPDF
EXPERIMENT: SHMT1 activity inhibition assay (serine production from glycine and CH2-THF, mass spectroscopy)
CONDITION SET: 60 minutes at room temperature

Please review the entries below; each comes with its answer.
- SMILES RECORD: "CC(C)[C@H](NC(=O)Cc1csc(-c2ccc(Cl)cc2Cl)n1)C(=O)O"
  IC50: "100 to 500 µM"
- SMILES RECORD: "CC(C)(NC(=O)Cc1csc(-c2ccc(Cl)cc2-c2cccc3c2COC3)n1)C(=O)O"
  IC50: "< 1 µM"

Consider the record given below.
The reported IC50 of the compound CC(C)(NC(=O)Cc1cccc(-c2ccc(Cl)cc2-c2cccc(C(N)=O)c2)c1)C(=O)O was 1 to 10 µM
